B1: MLL5 (parent)
chain: TYLCERCQPRNLDKERAVLLQRRK

variants of: B1; experiment: protein stability index of a GFP-peptide fusion (GPS, HEK-293T) (PSI 1-6); higher = more stable; details: c terminus: a fixed tail appended;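 also: lentivirally expressed fusions sorted by FACS into six bins by GFP to DsRed ratio, PSI derived from sequencing read proportions per bin multiplied by bin number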
Is protein stability index at least 2? Then TRUE. If not, FALSE.

mutation_key | category_label
Q8F | TRUE
R16M | TRUE
D13C | TRUE
N11P | TRUE
Q21R | TRUE
Q21T | FALSE
C7T | TRUE
C7Q | TRUE
E5H | TRUE
Q8M | FALSE
R22P | TRUE
V18I | TRUE
L19R | TRUE
R22S | TRUE
Y2C | FALSE
L3G | TRUE
E15K | TRUE
R10D | TRUE
Y2M | TRUE
K14C | FALSE
K24A | FALSE
P9C | TRUE
R16G | TRUE
R10M | TRUE
Y2K | TRUE
Q8T | TRUE
D13S | TRUE
L12E | TRUE
L20C | TRUE
D13W | TRUE
R16T | TRUE
R16I | FALSE
K14N | TRUE
C4M | TRUE
L3R | TRUE
Y2I | TRUE
T1E | FALSE
R10Q | TRUE
C7N | TRUE
R16P | TRUE
E5V | TRUE
Q21V | FALSE
Q8E | TRUE
T1R | TRUE
V18S | TRUE
L12P | TRUE
L12N | TRUE
V18T | TRUE
Q8G | TRUE
R6E | TRUE
K14L | TRUE
P9L | TRUE
L19T | TRUE
R16H | TRUE
Q8L | FALSE
L20A | TRUE
R23E | FALSE
C4H | TRUE
E5L | FALSE
K24I | FALSE
E5T | FALSE
R23M | TRUE
K14I | FALSE
E15N | FALSE
T1Q | TRUE
R10N | TRUE
R6P | TRUE
D13I | TRUE
V18L | TRUE
L12Y | FALSE
P9N | TRUE
D13E | TRUE
V18W | TRUE
C4W | TRUE
N11W | TRUE
E15I | TRUE
R23Y | FALSE
N11Y | FALSE
Y2R | TRUE
R6F | FALSE
